// values below are reported IC50
target_entity: eel AChE (Electrophorus electricus, UniProt O42275)
Construct: purchased Sigma-Aldrich Type VI-S
Sequence (O42275 24-633): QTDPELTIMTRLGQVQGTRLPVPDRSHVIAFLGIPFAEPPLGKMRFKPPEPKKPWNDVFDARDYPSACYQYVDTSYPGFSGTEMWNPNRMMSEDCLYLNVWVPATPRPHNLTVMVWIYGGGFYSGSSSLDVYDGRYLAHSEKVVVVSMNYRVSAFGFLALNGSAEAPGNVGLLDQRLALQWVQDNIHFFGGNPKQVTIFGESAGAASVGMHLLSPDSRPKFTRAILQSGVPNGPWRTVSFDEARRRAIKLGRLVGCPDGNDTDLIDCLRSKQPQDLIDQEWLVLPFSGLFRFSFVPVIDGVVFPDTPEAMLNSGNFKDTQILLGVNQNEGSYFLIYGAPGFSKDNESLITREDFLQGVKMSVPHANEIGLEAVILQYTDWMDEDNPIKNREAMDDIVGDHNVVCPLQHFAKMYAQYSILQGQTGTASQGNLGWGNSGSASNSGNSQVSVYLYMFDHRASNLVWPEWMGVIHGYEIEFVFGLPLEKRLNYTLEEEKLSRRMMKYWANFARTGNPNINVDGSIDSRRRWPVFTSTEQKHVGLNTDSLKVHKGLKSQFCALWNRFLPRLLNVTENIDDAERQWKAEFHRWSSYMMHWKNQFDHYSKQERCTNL
test_description: biochemical
reported_conditions: acetylthiocholine substrate, read-out: AChE IC50 (μM) ± SEM

smiles_repr | IC50 (µM)
O=C1/C(=C/c2ccccc2)CN(C(=O)C=Cc2ccccc2)C/C1=C\c1ccccc1 | 100
O=C1/C(=C/c2cccc3ccccc23)CN(C(=O)C=Cc2ccccc2)C/C1=C\c1cccc2ccccc12 | 85
O=C1/C(=C/c2cccs2)CN(C(=O)/C=C/c2cccc3ccccc23)C/C1=C\c1cccs1 | 70

----------
target_entity: soybean lipoxygenase (isozyme LOX-1) (Glycine max)
Construct: purchased Sigma Chemical, Co. (St. Louis, MO, USA)
Sequence (P08170 whole entry): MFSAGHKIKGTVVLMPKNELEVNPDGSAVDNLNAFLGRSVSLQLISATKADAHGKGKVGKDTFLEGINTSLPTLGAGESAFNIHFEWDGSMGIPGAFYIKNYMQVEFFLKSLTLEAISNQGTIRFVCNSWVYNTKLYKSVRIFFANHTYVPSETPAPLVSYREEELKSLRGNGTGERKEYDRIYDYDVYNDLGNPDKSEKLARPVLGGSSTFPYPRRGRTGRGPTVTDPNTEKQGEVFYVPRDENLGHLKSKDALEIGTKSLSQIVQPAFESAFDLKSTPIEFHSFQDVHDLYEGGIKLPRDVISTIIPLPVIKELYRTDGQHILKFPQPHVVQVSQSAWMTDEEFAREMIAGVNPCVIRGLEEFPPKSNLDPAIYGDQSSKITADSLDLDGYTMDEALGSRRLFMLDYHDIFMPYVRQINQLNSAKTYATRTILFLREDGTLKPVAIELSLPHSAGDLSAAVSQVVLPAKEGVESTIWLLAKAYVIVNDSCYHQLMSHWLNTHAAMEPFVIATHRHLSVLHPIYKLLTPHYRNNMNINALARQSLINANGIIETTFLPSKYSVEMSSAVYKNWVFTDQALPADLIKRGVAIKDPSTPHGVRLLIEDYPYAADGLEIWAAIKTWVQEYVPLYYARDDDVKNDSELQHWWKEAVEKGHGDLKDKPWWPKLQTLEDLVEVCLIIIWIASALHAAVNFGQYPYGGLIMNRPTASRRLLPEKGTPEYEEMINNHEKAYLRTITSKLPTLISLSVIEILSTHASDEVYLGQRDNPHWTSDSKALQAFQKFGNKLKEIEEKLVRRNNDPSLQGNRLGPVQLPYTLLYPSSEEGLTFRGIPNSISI
test_description: Soybean lipoxygenase inhibition study
Assay type: biochemical
reported_conditions: soybean lipoxygenase, sodium linoleate substrate; read-out: LOX IC50 (μM) ± SEM
Param label: returns True when IC50 < 50 µM, returns False otherwise, including exact equality.

smiles_repr | group_label
O=C1/C(=C/c2ccc(F)cc2)CN(C(=O)/C=C/c2cccc3ccccc23)C/C1=C\c1ccc(F)cc1 | False
O=C1/C(=C/c2cccs2)CN(C(=O)/C=C/c2cccc3ccccc23)C/C1=C\c1cccs1 | False
O=C1/C(=C/c2ccc(F)cc2)CN(C(=O)C=Cc2ccccc2)C/C1=C\c1ccc(F)cc1 | False
S=C1/C(=C/c2cccc3ccccc23)CNC/C1=C\c1cccc2ccccc12 | True
O=C1/C(=C/c2cccc3ccccc23)CN(C(=O)/C=C/c2ccc(O)c(O)c2)C/C1=C\c1cccc2ccccc12 | True
O=C1/C(=C/c2cccc3ccccc23)CN(C(=O)/C=C/c2cccc3ccccc23)C/C1=C\c1cccc2ccccc12 | True

----------
test_description: Experimental lipophilicity as RM values by RPTLC
Assay type: physicochemical
reported_conditions: silica gel impregnated with liquid paraffin, methanol/water 77/23, 24 °C
Label yes (1) when RM ± S.D. >= 0.2; otherwise no (0).

molecule | group_label
O=C1/C(=C/c2cccc3ccccc23)COC/C1=C\c1cccc2ccccc12 | yes (1)
COc1cc(/C=C/C(=O)CC(=O)/C=C/c2ccc(O)c(OC)c2)ccc1O [Curcumin, reference compound] | no (0)
O=C1/C(=C/c2ccc(F)cc2)CN(C(=O)C=Cc2ccccc2)C/C1=C\c1ccc(F)cc1 | yes (1)
S=C1/C(=C/c2cccc3ccccc23)CNC/C1=C\c1cccc2ccccc12 | no (0)
O=C1/C(=C/c2cccc3ccccc23)CC/C1=C\c1cccc2ccccc12 | yes (1)
O=C1/C(=C/c2cccc3ccccc23)CSC/C1=C\c1cccc2ccccc12 | no (0)

----------
target_entity: eel AChE (Electrophorus electricus)
Construct: purchased Sigma-Aldrich Type VI-S
test_description: biochemical
reported_conditions: 100 μM, n.a. = no activity under the experimental conditions, read-out: AChE (% Inhibition at 100 μM) ± SEM

smiles_repr | inhibition at 100 µM, %
O=C1/C(=C/c2ccccc2)COC/C1=C\c1ccccc1 | 25
S=C1/C(=C/c2cccc3ccccc23)CNC/C1=C\c1cccc2ccccc12 | 26.6
O=C(O)/C=C/c1ccccc1 | 4.6

----------
target_entity: soybean lipoxygenase (isozyme LOX-1) (Glycine max)
Construct: purchased Sigma Chemical, Co. (St. Louis, MO, USA)
test_description: Soybean lipoxygenase inhibition study
Type: biochemical
pIC50: −log10 of the molar value.

molecule | pIC50
O=C1/C(=C/c2ccccc2)CN(C(=O)C=Cc2ccccc2)C/C1=C\c1ccccc1 [3g] | 4.09
O=C(O)/C=C/c1cccc2ccccc12 [2b] | 4.56

----------
test_description: Experimental lipophilicity as RM values by RPTLC
Format: physicochemical
reported_conditions: silica gel impregnated with liquid paraffin, methanol/water 77/23, 24 °C

smiles_repr | RM ± S.D.
O=C1/C(=C/c2ccc(F)cc2)CN(C(=O)/C=C/c2cccc3ccccc23)C/C1=C\c1ccc(F)cc1 | 0.564
O=C1/C(=C/c2ccccc2)CN(C(=O)/C=C/c2cccc3ccccc23)C/C1=C\c1ccccc1 | 0.509
S=C1/C(=C/c2ccccc2)CNC/C1=C\c1ccccc1 | −0.848
O=C1/C(=C/c2ccccc2)CN(C(=O)C=Cc2ccccc2)C/C1=C\c1ccccc1 | 0.235
O=C1/C(=C/c2cccc3ccccc23)CN(C(=O)C=Cc2ccccc2)C/C1=C\c1cccc2ccccc12 | 0.599
O=C1/C(=C/c2cc3ccccc3o2)CNC/C1=C\c1cc2ccccc2o1 | −0.019
O=C1/C(=C/c2cccs2)CN(C(=O)/C=C/c2cccc3ccccc23)C/C1=C\c1cccs1 | 0.514
O=C(O)/C=C/c1ccccc1 | −0.485
O=C(O)/C=C/c1cccc2ccccc12 | −0.576
